Catalogue of abundance fitness values
B1: Lysine-specific demethylase 5C, residues 319 to 373; numbered along this chain, P41229 (parent)
chain: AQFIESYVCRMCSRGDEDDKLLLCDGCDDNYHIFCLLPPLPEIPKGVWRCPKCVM

# Variants of: B1
# experimental_details: abundance fitness (aPCA) (normalised: wild type 0, dead -1); higher = more abundant; growth selection in yeast, the domain comes from the species named
# experimental_parameters: Homo sapiens

Use the examples below as a reference point.
mutation_spec=Q2K result=0.247
mutation_spec=I33K result=-0.423
mutation_spec=D25W result=-0.383
mutation_spec=L21V result=-0.348
mutation_spec=F34T result=0.039
mutation_spec=E17W result=-0.176
mutation_spec=I4D result=-0.058
mutation_spec=L23Y result=-0.141
mutation_spec=Q2A result=-0.273
mutation_spec=L22G result=-0.912

Shifting focus to the variant that follows.
// sample `F34M` , its abundance fitness was -0.165
